target: Interleukin-8 (Homo sapiens)
assay_details: inhibitors of NFkB activation in CF airway cells, SAR follow-up, KKLEB cells, panel, IL8 HTRF, NFkB-GFP (AID 651592);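 also: immortalized cystic fibrosis airway epithelial KKLEB cells with an NF-kB GFP reporter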
experimental_parameters: PAF/TNFa-induced NFkB-GFP / IL8 HTRF, IL8, TNFa-induced, run 5
pIC50: −log10 of the molar value.
parameter: pIC50

Examples with answers:
O=C(Nc1ccc(N2CCN(C(=O)c3ccccc3Cl)CC2)cc1)c1cc(Br)cc(Br)c1: < 4.18
O=C(Nc1ccc(N2CCN(C(=O)c3ccccc3)CC2)cc1)c1ccccn1: < 4.18

Now for the compound whose pIC50 we want.
Give its pIC50 value. Item: O=C(Nc1ccc(N2CCN(C(=O)c3ccccc3F)CC2)cc1)c1cccc(Br)c1
< 4.18

====

target: Interleukin-8 (Homo sapiens) (UniProt P10145)
Sequence (P10145 whole entry, looked up): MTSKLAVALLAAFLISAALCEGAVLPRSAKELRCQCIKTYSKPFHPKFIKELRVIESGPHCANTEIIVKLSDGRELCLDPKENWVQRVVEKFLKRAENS
assay_details: inhibitors of NFkB activation in CF airway cells, SAR follow-up, KKLEB cells, panel, IL8 HTRF, NFkB-GFP (AID 651592);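 also: immortalized cystic fibrosis airway epithelial KKLEB cells with an NF-kB GFP reporter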
experimental_parameters: PAF/TNFa-induced NFkB-GFP / IL8 HTRF, IL8, PAF-induced, run 5
Readings of pIC50 for the listed molecules
The quantity pIC50 is defined as the negative base-10 logarithm of the molar concentration.

Examples with answers:
CCOc1ccc(NCc2cc3c(C(C)(C)C)nn(-c4ccccc4)c3[nH]c2=O)cc1: 5.34
O=C(Nc1ccc(N2CCN(C(=O)c3ccccc3)CC2)cc1)c1cncc(Br)c1: 5.13

Now for the molecule whose pIC50 we want.
Give its pIC50 value. Item: O=C(Nc1ccc(N2CCN(C(=O)c3ccccc3Cl)CC2)cc1)c1ccccn1
5.23

====

Readings of IC50 for the listed molecules
target: Interleukin-8 (Homo sapiens)
assay_details: inhibitors of NFkB activation in CF airway cells, SAR follow-up, KKLEB cells, panel, IL8 HTRF, NFkB-GFP (AID 651592);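 also: immortalized cystic fibrosis airway epithelial KKLEB cells with an NF-kB GFP reporter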
experimental_parameters: PAF/TNFa-induced NFkB-GFP / IL8 HTRF, IL8, PAF-induced, run 1

O=C(Nc1ccc(N2CCN(C(=O)c3ccc(F)cc3)CC2)cc1)c1cc(Br)cc(Br)c1: > 66 µM
CCOc1ccc(NCc2cc3c(C(C)(C)C)nn(-c4ccc(Cl)cc4)c3[nH]c2=O)cc1: 0.216 µM
O=C(Nc1ccc(N2CCN(C(=O)c3ccccc3F)CC2)cc1)c1ccccc1: > 66 µM

Give its IC50 value. Item: O=C(Nc1ccc(N2CCN(C(=O)c3ccc(F)cc3)CC2)cc1)c1cncc(Br)c1
8.79 µM

Give its IC50 value. Item: O=C(Nc1ccc(N2CCN(C(=O)c3ccccc3)CC2)cc1)c1ccccn1
> 66 µM

====

Readings of pIC50 for the listed compounds
assay_details: inhibitors of NFkB activation in CF airway cells, SAR follow-up, KKLEB cells, panel, IL8 HTRF, NFkB-GFP (AID 651592);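 also: immortalized cystic fibrosis airway epithelial KKLEB cells with an NF-kB GFP reporter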
experimental_parameters: PAF/TNFa-induced NFkB-GFP / IL8 HTRF, CF-PAF assay, run 2
The quantity pIC50 is defined as the negative base-10 logarithm of the molar concentration.

Examples with answers:
O=C(Nc1ccc(N2CCN(C(=O)c3ccccc3F)CC2)cc1)c1cccnc1: 5.08
O=C(Nc1ccc(N2CCN(C(=O)c3ccccc3Cl)CC2)cc1)c1ccccc1: 5.39
O=C(Nc1ccc(N2CCN(C(=O)c3ccccc3Cl)CC2)cc1)c1ccncc1: 5.06
CCOc1ccc(NCc2cc3c(-c4ccc(OC)c(OC)c4)nn(-c4ccccc4)c3[nH]c2=O)cc1: 4.35
O=C(Nc1ccc(N2CCN(C(=O)c3ccccc3F)CC2)cc1)c1cccc(Br)c1: 4.74

Give its pIC50 value. Item: O=C(Nc1ccc(N2CCN(C(=O)c3ccccc3Cl)CC2)cc1)c1cccc(Br)c1
4.78

Give its pIC50 value. Item: CCOc1ccc(NCc2cc3c(C(C)(C)C)nn(-c4ccc(Cl)cc4)c3[nH]c2=O)cc1
5.00

Give its pIC50 value. Item: O=C(Nc1ccc(N2CCN(C(=O)c3ccccc3)CC2)cc1)c1cccnc1
4.68

Give its pIC50 value. Item: O=C(Nc1ccc(N2CCN(C(=O)c3ccccc3F)CC2)cc1)c1ccncc1
4.79

Give its pIC50 value. Item: O=C(Nc1ccc(N2CCN(C(=O)c3ccccc3)CC2)cc1)c1cncc(Br)c1
5.50

Every entry's value here was drawn from PubChem BioAssay AID651592.
